- assay_details: Microsomal stability in human liver microsomes assessed as half life at 100 uM preincubated for 15 mins followed by NADPH addition measured up to 60 mins by LC-MS/MS analysis
- Assay type: ADME, Microsome
- experimental_conditions: time < 75 min
measured_attribute: half-life at 100 µM (min)
State the answer as a number, implicitly in min.

Check out these entries, answers already filled in.
CCOC(=O)c1c(CSc2c(C)cc(C)cc2C)n(Cc2ccc(C)cc2)c2cc(Br)c(O)cc12	17.3
CCOC(=O)c1c(CSc2ccc(C)cc2C)n(Cc2ccc(C)cc2)c2cc(Br)c(O)c(CN(C)C)c12	2.71
Cc1ccc(Cn2c(CSc3c(C)cc(C)cc3C)c(C(=O)N3CCC(N4CCOCC4)CC3)c3cc(O)c(Br)cc32)cc1	19.8
Cc1ccc(Cn2c(CSc3c(C)cc(C)cc3C)c(C(=O)NC3CCN(C(C)C)CC3)c3cc(O)c(Br)cc32)cc1	89.8
Cc1ccc(Cn2c(CSc3c(C)cc(C)cc3C)c(C(=O)NC(C)(C)C)c3cc(O)c(Br)cc32)cc1	9.7
CN(C)CCCCNC(=O)c1c(CSc2ccc(F)cc2)n(C)c2cc(Br)c(O)cc12	31.2

Give the reported half-life at 100 µM for this molecule. "Cc1ccc(Cn2c(CSc3c(C)cc(C)cc3C)c(C(=O)Nc3cnn(C)c3)c3cc(O)c(Br)cc32)cc1" 24.5

====

- assay_details: AUC (0 to infinity) in female C57BL/6 mouse at 20 mg/kg, po
- Format: ADME, organism-based
- experimental_conditions: in vivo
measured_attribute: AUC(0-inf) (ng·h/mL)
State the answer as a number, implicitly in ng·h/mL.

Give the reported AUC(0-inf) for this compound. "Cc1ccc(Cn2c(CSc3c(C)cc(C)cc3C)c(C(=O)N3CCC(N4CCOCC4)CC3)c3cc(O)c(Br)cc32)cc1" 1190

====

- assay_details: AUC (0 to infinity) in female C57BL/6 mouse at 2 mg/kg, iv
- Assay type: ADME, organism-based
- experimental_conditions: in vivo
measured_attribute: AUC(0-inf) (ng·h/mL)
State the answer as a number, implicitly in ng·h/mL.

Give the reported AUC(0-inf) for this molecule. "Cc1ccc(Cn2c(CSc3c(C)cc(C)cc3C)c(C(=O)N3CCC(N4CCOCC4)CC3)c3cc(O)c(Br)cc32)cc1" 352
